A collection of molecules and their measured IC50
Target: MMP2 (Homo sapiens, UniProt P08253)
Sequence (P08253 110-660): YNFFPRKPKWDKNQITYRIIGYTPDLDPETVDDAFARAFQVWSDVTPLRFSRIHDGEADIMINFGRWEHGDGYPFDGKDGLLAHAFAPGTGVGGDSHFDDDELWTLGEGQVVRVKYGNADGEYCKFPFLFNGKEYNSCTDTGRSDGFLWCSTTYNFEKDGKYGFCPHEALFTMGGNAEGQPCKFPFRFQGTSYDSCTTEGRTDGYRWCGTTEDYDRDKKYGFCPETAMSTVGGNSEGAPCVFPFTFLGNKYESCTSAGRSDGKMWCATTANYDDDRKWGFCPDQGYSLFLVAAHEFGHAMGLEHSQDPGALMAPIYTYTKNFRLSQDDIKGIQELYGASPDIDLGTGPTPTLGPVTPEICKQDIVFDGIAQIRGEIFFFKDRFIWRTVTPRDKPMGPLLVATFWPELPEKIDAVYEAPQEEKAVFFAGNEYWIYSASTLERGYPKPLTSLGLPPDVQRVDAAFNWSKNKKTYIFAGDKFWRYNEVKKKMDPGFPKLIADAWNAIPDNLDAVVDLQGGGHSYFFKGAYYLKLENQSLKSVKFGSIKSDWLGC
Assay: Inhibitory effects on human MMP2 (Method 1), enzyme assay with MOCAc-Pro-Leu-Gly-Leu-A2pr(Dnp)-Ala-Arg-NH2 substrate, 96-well
Type: biochemical
Conditions: Test Example No. 1-1 (Method 1, 96-well); read-out: Human MMP2, IC50
*1 amine or outer side, *2 acyl side, *3 side chain or, on linkers, in order; H or OH if unused. Where a SMILES comes first, the peptide text is derived from it. Bridges are numbered along the chain shown (N, C = ends). Side-chain parts run from the residue outwards. [ ]: non-standard residue; d: D form. The star is where a group is joined. Benzenesulfonyl(4-OPh) = O=S(=O)(c1ccc(Oc2ccccc2)cc1)*; d(γGlu) = O=C(O)[C@@H](CCC(=O)[*:2])N[*:1]; C16 diacid = O=C(O)CCCCCCCCCCCCCCC(=O)*; NMeI = CC[C@H](C)[C@H](NC)C(=O)O; NMeD = CN[C@@H](CC(=O)O)C(=O)O; β3hP = O=C(O)C[C@@H]1CCCN1; Dab = NCC[C@H](N)C(=O)O; AEEA = NCCOCCOCC(=O)O; GABA = NCCCC(=O)O; βAla = NCCC(=O)O
Reply with just the number (in nM).

Check out these entries, answers already filled in.
[
  {
    "molecule": "CN(C(=O)[C@@H]1CCCCNC(=O)CCNC(=O)CC[C@H](NC(=O)CCCNS(=O)(=O)c2ccc(Oc3ccccc3)cc2)C(=O)N[C@@H](CC(=O)O)C(=O)N[C@@H](CCN)C(=O)N1)[C@@H](CC(=O)O)C(=O)N1CCC[C@H]1CC(N)=O [Compound 895] ({Benzenesulfonyl(4-OPh)-GABA}-ED[Dab]K[NMeD][β3hP]-NH2; linker 1-4 via βAla (inferred); N-terminus assumed)",
    "unit.string": "nM",
    "endpoint.value": 1.3
  },
  {
    "molecule": "CC[C@H](C)[C@@H](C(=O)N1CCC[C@H]1CC(N)=O)N(C)C(=O)[C@H](CC(C)C)NC(=O)[C@H](C)NC(=O)[C@H](CC(=O)O)NC(=O)[C@H](CCCCNC(=O)COCCOCCNC(=O)COCCOCCNC(=O)CC[C@@H](NC(=O)CCCCCCCCCCCCCCC(=O)O)C(=O)O)NC(=O)CCCNS(=O)(=O)c1ccc(Oc2ccccc2)cc1 [Compound 903] ({Benzenesulfonyl(4-OPh)-GABA}-K([AEEA-AEEA-d(γGlu)-C16 diacid])DAL[NMeI][β3hP]-NH2)",
    "unit.string": "nM",
    "endpoint.value": 0.127
  }
]

Next:
Qu. Give me measured IC50, please, for this molecule: CC[C@H](C)[C@@H](C(=O)N1CCC[C@H]1CC(=O)O)N(C)C(=O)[C@@H]1CCCCNC(=O)CNC(=O)CC[C@H](NC(=O)CCCNS(=O)(=O)c2ccc(Oc3ccccc3)cc2)C(=O)N[C@@H](CC(=O)O)C(=O)N[C@@H](C)C(=O)N1 [Compound 891] ({Benzenesulfonyl(4-OPh)-GABA}-EDAK[NMeI][β3hP]-OH; linker 1-4 via G)
Ans. 1.6

From: patent US20240199692A1
